Reported Ki values for the following compounds.
- subject.of.test: human V1a receptor (Homo sapiens)
- Construct: expressed in transfected cells; host or cells: HEK293 cells, transiently transfected; cell membranes
- Sequence (P37288 whole entry): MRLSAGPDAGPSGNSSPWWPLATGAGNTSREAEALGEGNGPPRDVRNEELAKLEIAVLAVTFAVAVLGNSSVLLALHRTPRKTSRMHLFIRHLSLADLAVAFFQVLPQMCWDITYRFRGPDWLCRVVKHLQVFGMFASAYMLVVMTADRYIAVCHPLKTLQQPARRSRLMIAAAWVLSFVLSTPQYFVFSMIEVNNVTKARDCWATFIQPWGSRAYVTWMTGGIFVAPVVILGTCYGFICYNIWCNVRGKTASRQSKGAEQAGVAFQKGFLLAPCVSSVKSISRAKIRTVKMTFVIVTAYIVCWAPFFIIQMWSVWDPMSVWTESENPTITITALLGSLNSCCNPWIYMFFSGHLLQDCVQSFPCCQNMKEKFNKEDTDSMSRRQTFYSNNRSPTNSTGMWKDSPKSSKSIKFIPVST
- assay.info: human V1a receptor binding studies (3H-Vasopressin, SPA beads)
- condition.details: membranes of HEK293 cells transiently transfected with human V1a receptor, Ki by Cheng-Prussoff from IC50, read-out: pKi hV1a (converted)
Just the number please, in nM, no unit attached.

compound	Ki (nM)
CC1(CC2CCCOC2)OC(N2CCC3(CC2)OCc2ccccc23)=NC1=O (single isomer, unassigned; diastereomer a) [Example 103]	10
CC1(Cc2ccccc2)OC(N2CCC3(CC2)OCc2ccccc23)=NC1=O (single isomer, unassigned; (-)) [Example 71]	79.4
O=C1OC2(CCN(C3=NC(=O)C(Cc4ccccc4)O3)CC2)c2cccc(F)c21 (stereo not shown)	200

Please turn your attention to the following entry.
Request: Could you please provide reported Ki for O=C1N=C(N2CCC3(CC2)OCc2ccccc23)OC12CC1CCCCCC1C2 (stereo not shown) ? Thanks!
Response: 0.631
